Target: Aβ (1-42) (Homo sapiens)
Construct: Required Aβ (1-42) (California Peptide) is dried from its hexafluoroisopropanol (HFIP) stock solution; purchased California Peptide
Sequence (P05067 672-713): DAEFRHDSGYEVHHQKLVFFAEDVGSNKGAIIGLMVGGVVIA
Experiment: Batym Assay (Aβ(1-42) aggregation, Thioflavin T fluorescence)
Format: biochemical
Conditions: Aβ 1-42 final concentration 100 μM, PBS pH 7.4, 37° C. for 1 day, ThT fluorescence
property-label: IC50

Notebook: COc1ccc(/C=C2\N=C(c3ccccc3)OC2=O)cc1OC , IC50 read as > 100 µM

***
Entry CN(C)c1ccc(/C=C2\N=C(c3ccccc3)OC2=O)c2ccccc12 , IC50 reported as 14.5 µM

Input O=C1OC(c2ccccc2)=N/C1=C\c1ccc2c(c1)OCO2 . Output IC50: > 100 µM
